Test system: HCC-44
Test: relative viability (nuclei count vs DMSO), 5 days (fraction); higher = more cells survive
Details: first compound 1.265 µM
ENDPOINT LABEL: relative viability
Lab note: record just the number, no unit beside it.

Return relative viability for the following molecule: COc1cc(N2CCC(C(N)=O)CC2)ccc1Nc1nc(N)c(Cl)c(Nc2ccccc2S(=O)(=O)C(C)C)n1 [HG-5-88-01] + CS(=O)(=O)CCNCc1ccc(-c2ccc3ncnc(Nc4ccc(OCc5cccc(F)c5)c(Cl)c4)c3c2)o1 [Lapatinib] (partner 2 µM)
1.04

Return relative viability for the following molecule: Clc1ccc(Nc2nnc(Cc3ccncc3)c3ccccc23)cc1 [Vatalanib] + CCNC(=O)c1noc(-c2cc(C(C)C)c(O)cc2O)c1-c1ccc(CN2CCOCC2)cc1 [Luminespib] (partner 0.01 µM)
0.927

---

Tested on: NCI-H322M
Experiment: relative viability (nuclei count vs DMSO), 5 days (fraction); higher = more cells survive
Details: first compound 1.265 µM
ENDPOINT LABEL: relative viability

Return relative viability for the following molecule: COc1cc(N2CCC(C(N)=O)CC2)ccc1Nc1nc(N)c(Cl)c(Nc2ccccc2S(=O)(=O)C(C)C)n1 [HG-5-88-01] + Nc1ncn([C@H]2C[C@H](O)[C@@H](CO)O2)c(=O)n1 [Decitabine] (partner 2 µM)
0.483

Return relative viability for the following molecule: Clc1ccc(Nc2nnc(Cc3ccncc3)c3ccccc23)cc1 [Vatalanib] + CS(=O)(=O)N1CCN(Cc2cc3nc(-c4cccc5[nH]ncc45)nc(N4CCOCC4)c3s2)CC1 [Pictilisib] (partner 1 µM)
0.534

---

Test system: ChaGo-K-1
Assay: relative viability (nuclei count vs DMSO), 5 days (fraction); higher = more cells survive
Details: first compound 0.3162 µM
Labelling field: enter MET if recorded relative viability is less than 0.9. Enter NOT MET if it equals or exceeds that cut-off.

Please determine if CC(C)Oc1cc(Nc2nc(N[C@@H](C)c3ccc(F)cn3)ncc2Cl)n[nH]1 [AZ23] + NC(=O)Nc1cc(-c2cccc(F)c2)sc1C(=O)N[C@H]1CCCNC1 [AZD7762] (partner 0.2 µM) is below 0.9 in terms of relative viability.
NOT MET

Please determine if CC(C)Oc1cc(Nc2nc(N[C@@H](C)c3ccc(F)cn3)ncc2Cl)n[nH]1 [AZ23] + Cc1cc(Nc2cc(N3CCN(C)CC3)nc(Sc3ccc(NC(=O)C4CC4)cc3)n2)n[nH]1 [Tozasertib] (partner 0.1 µM) is below 0.9 in terms of relative viability.
MET

Please determine if CC(C)Oc1cc(Nc2nc(N[C@@H](C)c3ccc(F)cn3)ncc2Cl)n[nH]1 [AZ23] + COc1cc2c(Oc3ccc(NC(=O)C4(C(=O)Nc5ccc(F)cc5)CC4)cc3F)ccnc2cc1OCCCN1CCOCC1 [Foretinib] (partner 0.25 µM) is below 0.9 in terms of relative viability.
NOT MET

Please determine if CC(C)Oc1cc(Nc2nc(N[C@@H](C)c3ccc(F)cn3)ncc2Cl)n[nH]1 [AZ23] + O=C(CCCCCCC(=O)Nc1ccccc1)NO [Vorinostat] (partner 1 µM) is below 0.9 in terms of relative viability.
MET

Please determine if CC(C)Oc1cc(Nc2nc(N[C@@H](C)c3ccc(F)cn3)ncc2Cl)n[nH]1 [AZ23] + Cc1nc(Nc2ncc(C(=O)Nc3c(C)cccc3Cl)s2)cc(N2CCN(CCO)CC2)n1 [Dasatinib] (partner 0.075 µM) is below 0.9 in terms of relative viability.
MET

---

Test system: LCLC-103H
Assay: relative viability (nuclei count vs DMSO), 5 days (fraction); higher = more cells survive
Details: first compound 0.4 µM
Labelling field: enter fulfilled if recorded relative viability is less than 0.5. Enter not fulfilled if it equals or exceeds that cut-off.

Please determine if COc1cc(N2CCC(C(N)=O)CC2)ccc1Nc1nc(N)c(Cl)c(Nc2ccccc2S(=O)(=O)C(C)C)n1 [HG-5-88-01] + CCNC(=O)c1noc(-c2cc(C(C)C)c(O)cc2O)c1-c1ccc(CN2CCOCC2)cc1 [Luminespib] (partner 0.01 µM) is below 0.5 in terms of relative viability.
not fulfilled

Please determine if Clc1ccc(Nc2nnc(Cc3ccncc3)c3ccccc23)cc1 [Vatalanib] + Cc1nc(NC(=O)N2CCC[C@H]2C(N)=O)sc1-c1ccnc(C(C)(C)C(F)(F)F)c1 [Alpelisib] (partner 2 µM) is below 0.5 in terms of relative viability.
not fulfilled

Please determine if Clc1ccc(Nc2nnc(Cc3ccncc3)c3ccccc23)cc1 [Vatalanib] + C[C@@H](Oc1cc(-c2cnn(C3CCNCC3)c2)cnc1N)c1c(Cl)ccc(F)c1Cl [Crizotinib] (partner 1 µM) is below 0.5 in terms of relative viability.
not fulfilled

Please determine if COc1cc(N2CCC(C(N)=O)CC2)ccc1Nc1nc(N)c(Cl)c(Nc2ccccc2S(=O)(=O)C(C)C)n1 [HG-5-88-01] + CC(=O)Nc1cccc(-n2c(=O)n(C3CC3)c(=O)c3c(Nc4ccc(I)cc4F)n(C)c(=O)c(C)c32)c1 [Trametinib] (partner 0.02 µM) is below 0.5 in terms of relative viability.
not fulfilled

Please determine if COc1cc(N2CCC(C(N)=O)CC2)ccc1Nc1nc(N)c(Cl)c(Nc2ccccc2S(=O)(=O)C(C)C)n1 [HG-5-88-01] + Cc1cc(Nc2cc(N3CCN(C)CC3)nc(Sc3ccc(NC(=O)C4CC4)cc3)n2)n[nH]1 [Tozasertib] (partner 0.1 µM) is below 0.5 in terms of relative viability.
fulfilled

Please determine if Clc1ccc(Nc2nnc(Cc3ccncc3)c3ccccc23)cc1 [Vatalanib] + NC(=O)Nc1cc(-c2cccc(F)c2)sc1C(=O)N[C@H]1CCCNC1 [AZD7762] (partner 0.2 µM) is below 0.5 in terms of relative viability.
not fulfilled

Please determine if COc1cc(N2CCC(C(N)=O)CC2)ccc1Nc1nc(N)c(Cl)c(Nc2ccccc2S(=O)(=O)C(C)C)n1 [HG-5-88-01] + N=C(N)NC(=N)NCCc1ccccc1 [Phenformin] (partner 250 µM) is below 0.5 in terms of relative viability.
fulfilled

---

For each record, write down the corresponding relative viability.
Tested on: NCI-H322M
Assay: relative viability (nuclei count vs DMSO), 5 days (fraction); higher = more cells survive
Details: first compound 0.4 µM
Lab note: record just the number, no unit beside it.

Return relative viability for the following molecule: Clc1ccc(Nc2nnc(Cc3ccncc3)c3ccccc23)cc1 [Vatalanib] + C[C@@H](Oc1cc(-c2cnn(C3CCNCC3)c2)cnc1N)c1c(Cl)ccc(F)c1Cl [Crizotinib] (partner 1 µM)
0.958

Return relative viability for the following molecule: Clc1ccc(Nc2nnc(Cc3ccncc3)c3ccccc23)cc1 [Vatalanib] + C[C@]1(O)C[C@@H](c2nc(-c3ccc4ccc(-c5ccccc5)nc4c3)c3c(N)nccn32)C1 [Linsitinib] (partner 1 µM)
0.975

Return relative viability for the following molecule: COc1cc(N2CCC(C(N)=O)CC2)ccc1Nc1nc(N)c(Cl)c(Nc2ccccc2S(=O)(=O)C(C)C)n1 [HG-5-88-01] + NC(=O)Nc1cc(-c2cccc(F)c2)sc1C(=O)N[C@H]1CCCNC1 [AZD7762] (partner 0.2 µM)
0.465

Return relative viability for the following molecule: C[C@@H]1CN(CC(=O)Nc2ccc3c(c2)Cc2cccc(-c4cc(=O)cc(N5CCOCC5)o4)c2S3)C[C@H](C)O1 + CS(=O)(=O)N1CCN(Cc2cc3nc(-c4cccc5[nH]ncc45)nc(N4CCOCC4)c3s2)CC1 [Pictilisib] (partner 1 µM)
0.452

Return relative viability for the following molecule: C[C@@H]1CN(CC(=O)Nc2ccc3c(c2)Cc2cccc(-c4cc(=O)cc(N5CCOCC5)o4)c2S3)C[C@H](C)O1 + CC(=O)Nc1cccc(-n2c(=O)n(C3CC3)c(=O)c3c(Nc4ccc(I)cc4F)n(C)c(=O)c(C)c32)c1 [Trametinib] (partner 0.02 µM)
0.502

Return relative viability for the following molecule: Clc1ccc(Nc2nnc(Cc3ccncc3)c3ccccc23)cc1 [Vatalanib] + COc1cccc2cc(-c3nc([C@H]4CC[C@H](C(=O)O)CC4)n4ncnc(N)c34)[nH]c12 [OSI-027] (partner 0.5 µM)
0.493

Return relative viability for the following molecule: C[C@@H]1CN(CC(=O)Nc2ccc3c(c2)Cc2cccc(-c4cc(=O)cc(N5CCOCC5)o4)c2S3)C[C@H](C)O1 + NC(=O)Nc1cc(-c2cccc(F)c2)sc1C(=O)N[C@H]1CCCNC1 [AZD7762] (partner 0.2 µM)
0.702

Return relative viability for the following molecule: COc1cc(N2CCC(C(N)=O)CC2)ccc1Nc1nc(N)c(Cl)c(Nc2ccccc2S(=O)(=O)C(C)C)n1 [HG-5-88-01] + O=C(CCCCCCC(=O)Nc1ccccc1)NO [Vorinostat] (partner 1 µM)
0.782

Return relative viability for the following molecule: Clc1ccc(Nc2nnc(Cc3ccncc3)c3ccccc23)cc1 [Vatalanib] + CS(=O)(=O)CCNCc1ccc(-c2ccc3ncnc(Nc4ccc(OCc5cccc(F)c5)c(Cl)c4)c3c2)o1 [Lapatinib] (partner 2 µM)
0.509

Cited source: the supplement of paper PMC10307832
